Biological target: T1, G-CSFR on NFS-60 cells (murine myeloblastic cell line) (mouse, UniProt P40223 26-837)
T1 sequence (looked up): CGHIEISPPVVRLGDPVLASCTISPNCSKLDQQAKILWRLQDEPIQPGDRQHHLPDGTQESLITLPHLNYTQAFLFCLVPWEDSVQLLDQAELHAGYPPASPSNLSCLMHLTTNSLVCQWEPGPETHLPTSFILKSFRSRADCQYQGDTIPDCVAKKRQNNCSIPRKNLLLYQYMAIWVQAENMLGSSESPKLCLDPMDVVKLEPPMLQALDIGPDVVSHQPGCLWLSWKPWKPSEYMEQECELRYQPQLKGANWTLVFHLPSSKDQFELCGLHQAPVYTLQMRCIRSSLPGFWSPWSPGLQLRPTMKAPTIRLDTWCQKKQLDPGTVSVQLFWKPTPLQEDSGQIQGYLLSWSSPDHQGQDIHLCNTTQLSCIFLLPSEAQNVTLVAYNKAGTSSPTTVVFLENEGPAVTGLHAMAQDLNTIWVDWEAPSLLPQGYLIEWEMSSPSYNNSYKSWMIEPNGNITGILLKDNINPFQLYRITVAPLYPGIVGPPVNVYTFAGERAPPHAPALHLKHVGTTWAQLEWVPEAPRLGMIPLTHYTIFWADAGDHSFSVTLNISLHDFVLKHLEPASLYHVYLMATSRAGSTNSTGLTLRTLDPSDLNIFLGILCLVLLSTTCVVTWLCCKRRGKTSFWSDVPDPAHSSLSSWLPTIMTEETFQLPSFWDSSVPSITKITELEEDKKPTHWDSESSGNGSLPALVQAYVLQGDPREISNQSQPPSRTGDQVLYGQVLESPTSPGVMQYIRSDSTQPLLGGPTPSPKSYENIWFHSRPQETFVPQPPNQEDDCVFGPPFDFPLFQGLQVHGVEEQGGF
Test: cell-based or functional assay
ASSAY_ENDPOINT: NFS-60 EC50 (ng/mL), proliferation of NFS-60 cells
Numbers only here, please. The scale is ng/mL.

>>> result("Boskar_3 (designed binder) AALAAVLAEIYKGLAEYQARLQSLEGISPELGPALDALRLDVADFATTIAQAMEENKGPLPQSFLLKALEQIRKIQADAAALREKLAATYPSSQRAAAAVEIAAQLEAFLEKAYEILRHLAAA")
768

Q. Would you kindly share the measured NFS-60 EC50 (ng/mL), proliferation of NFS-60 cells for Disohair_1 (designed binder) MTSDYIIEQIQRKQEEARLKVEEMERKLEEVKEASKRGVSSDQLLNLILDLADIITTLIQIIEESNEAIKELIKNQ ?
A. 2380

Q. Would you kindly share the measured NFS-60 EC50 (ng/mL), proliferation of NFS-60 cells for Moevan (designed binder, also called Movean) MEAAAAARDESAYLKLQEQMRKIDADAAALSETRTIEELDTFKLDVADFVTTVVQLAEELEHRFGRNRRGRTEIYKIVKEVDRKLLDLTDAVLAKEKKGEDILNMVAEIKALLINIYK ?
A. 356

Q. Would you kindly share the measured NFS-60 EC50 (ng/mL), proliferation of NFS-60 cells for Boskar_1 (designed binder) AALAAELAEIYKGLAEYQARLQSLEGISPELGPALDALRLDVADFATTLAQAMEEKKTNLPQSFLLKALEQIRKIQADAAALREKLAATYTGTDRAAAAVEIAAQLEAFLEKAYEILRHLAAA ?
A. 2170
